Target: human mGluR2 receptor (Homo sapiens)
Construct: expressed in transfected cells; host or cells: CHO cells (membrane preparation)
Test: [35S]GTPγS binding assay (GTPγS-PAM): positive allosteric modulation in presence of glutamate at EC25, membranes from transfected CHO cells
Type: biochemical
Details: in presence of mGluR2 agonist glutamate at predetermined EC25 concentration, averages of duplicate values of 11-concentration response curves, read-out: GTPgS - hR2 PAM pEC50 (converted)
Method: The compounds provided in the present invention are positive allosteric modulators of mGluR2. These compounds appear to potentiate glutamate responses by binding to an allosteric site other than the glutamate binding site. […] The [^35S]GTPγS binding is a functional membrane-based assay used to study G-protein coupled receptor (GPCR) function whereby incorporation of a non-hydrolysable form of GTP, [^35S]GTPγS (guanosine 5′-triphosphate, labelled with gamma-emitting ^35S), is measured. […]
Measured parameter: EC50 (nM)
The response must be a number in nM with no trailing unit.

EC50 in this record for CCCCn1ccc(N2CCN(c3cnc(N4CCOCC4)nc3)CC2)c(C#N)c1=O [2-009] : 6310

GET /value?item= COc1ccccc1-c1ccn(CC2CCCCC2)c(=O)c1C#N [1-011] &field=EC50 returns 2000

Entry CCCCn1ccc(-c2ccc(Oc3ccnc(N4CCOCC4)c3)cc2)c(C#N)c1=O [1-073] — recorded EC50 = 398

The compound identified as CC(C)CCn1ccc(-c2ccc(NC3CCCCC3)cc2)c(C#N)c1=O [1-188] registered its EC50 at 50.1

Data point: CC(C)CCn1ccc(N2CCC(NCc3cccc(C(F)(F)F)c3)CC2)c(C#N)c1=O [4-024] ; EC50 = 6310

Please fill in: EC50 reported for CCCCn1ccc(N2CCC(Oc3ccccn3)CC2)c(C#N)c1=O [4-005] = 501

So, CC(C)CCn1ccc(-c2ccc(NCc3ccccc3)cc2)c(C#N)c1=O [1-194] ? Its EC50 was 63.1

Given item CC(C)CCn1ccc(-c2ccc(NCc3ccc(OC(F)(F)F)cc3)cc2)c(C#N)c1=O [1-205] , the value recorded as its EC50 is 251

Note to self: EC50 recorded for CC(C)CCn1ccc(N2CCc3c(sc4ccc(Cl)cc34)C2)c(C#N)c1=O [5-042] was 200

---

molecular target: human mGluR2 receptor (Homo sapiens, UniProt Q14416); construct: expressed in transfected cells; host or cells: CHO cells (membrane preparation); experiment: [35S]GTPγS binding assay (GTPγS-PAM): positive allosteric modulation in presence of glutamate at EC25, membranes from transfected CHO cells; type: biochemical; settings: in presence of mGluR2 agonist glutamate at predetermined EC25 concentration, averages of duplicate values of 11-concentration response curves, read-out: GTPgS - hR2 PAM pEC50 (converted)
Sequence (Q14416 19-872): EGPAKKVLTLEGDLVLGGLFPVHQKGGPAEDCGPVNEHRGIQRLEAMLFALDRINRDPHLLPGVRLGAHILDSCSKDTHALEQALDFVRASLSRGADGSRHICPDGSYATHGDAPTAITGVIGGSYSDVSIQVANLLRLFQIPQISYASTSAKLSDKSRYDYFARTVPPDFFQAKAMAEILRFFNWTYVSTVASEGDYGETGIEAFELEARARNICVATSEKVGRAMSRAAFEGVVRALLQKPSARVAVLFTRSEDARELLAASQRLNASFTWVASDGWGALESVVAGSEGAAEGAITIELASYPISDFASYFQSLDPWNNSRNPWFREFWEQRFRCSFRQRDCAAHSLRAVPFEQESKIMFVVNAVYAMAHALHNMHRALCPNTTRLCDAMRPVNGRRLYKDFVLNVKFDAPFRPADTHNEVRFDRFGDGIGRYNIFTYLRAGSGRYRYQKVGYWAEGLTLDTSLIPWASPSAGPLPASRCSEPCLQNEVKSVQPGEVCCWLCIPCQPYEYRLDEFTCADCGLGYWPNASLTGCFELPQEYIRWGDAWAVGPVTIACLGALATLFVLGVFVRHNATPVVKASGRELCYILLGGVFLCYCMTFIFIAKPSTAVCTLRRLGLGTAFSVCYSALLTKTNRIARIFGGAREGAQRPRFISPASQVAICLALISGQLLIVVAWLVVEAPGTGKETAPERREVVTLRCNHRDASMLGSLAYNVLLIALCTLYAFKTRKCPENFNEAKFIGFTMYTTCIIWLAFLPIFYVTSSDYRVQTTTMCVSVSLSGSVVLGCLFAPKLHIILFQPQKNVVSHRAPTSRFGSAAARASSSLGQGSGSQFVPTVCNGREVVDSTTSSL
Field: label. Allowed values: class 1 (EC50 < 2000 nM) or class 0 (EC50 >= 2000 nM).

In: Quick check: EC50 of COc1ccc(-c2ccn(Cc3ccc(C)cc3)c(=O)c2C#N)cc1 [1-021] under 2000 nM?
Out: class 1

In: Record CC(C)CCn1ccc(N2CCN(c3ccccc3)CC2)c(C#N)c1=O [2-011] : is its EC50 strictly below 2000 nM?
Out: class 1

In: Quick check: EC50 of CCCCn1ccc(-c2cccc(Oc3ccncc3C(F)(F)F)c2)c(C#N)c1=O [1-069] under 2000 nM?
Out: class 0

In: In plain terms, does CCCCn1ccc(N2CCN(c3nccc(OC)n3)CC2)c(C#N)c1=O [2-007] come in under 2000 nM for EC50?
Out: class 1

---

Measured parameter: melting point
Answer with the value and then the unit.

// recorded melting point for CC(C)CCn1ccc(-c2ccc(NCC#N)cc2)c(C#N)c1=O : 269 °C

Measured melting point, CC(C)CCn1ccc(-c2ccc(NCc3cccc(Cl)c3)cc2)c(C#N)c1=O : 146 °C

The compound identified as CC(C)CCn1ccc(OCc2ccc(OC(F)F)cc2)c(C#N)c1=O registered its melting point at 190 °C

Measured melting point of N#Cc1c(N2CCN(Cc3ccc(F)cc3)CC2)ccn(Cc2ccc(OC(F)(F)F)cc2)c1=O : 156 °C

Entry under test: N#Cc1c(N2CCC(N3Cc4ccc(F)cc4C3)CC2)ccn(Cc2ccc(F)cc2)c1=O . Its melting point was 175 °C

---

Lab note: cut-off is 100 °C. Strictly less in melting point is y. Exactly 100 °C or more is n.

In: Confirm or reject: melting point of N#Cc1c(-c2ccc(OCCN3CCOCC3)cc2)ccn(Cc2ccc(OC(F)(F)F)cc2)c1=O lies strictly below 100 °C
Out: n

In: State whether 100 °C exceeds melting point recorded for COc1cc(-c2ccn(CCC(C)C)c(=O)c2C#N)ccc1N1CCOCC1 .
Out: n

In: Hi there! Is melting point for CC(C)CCn1ccc(-c2ccc(OCc3ccc(F)cc3)cc2)c(C#N)c1=O below 100 °C, do you know?
Out: n

In: I wonder whether COc1cccc(-c2ccn(CCC(C)C)c(=O)c2C#N)c1 has melting point below 100 °C. Can you tell?
Out: y

In: Record CC(C)CCn1ccc(OCc2ccccc2)c(C#N)c1=O : is its melting point strictly below 100 °C?
Out: n

In: In plain terms, does CC(C)CCn1ccc(-c2cccc(-c3ccccc3)c2)c(C#N)c1=O come in under 100 °C for melting point?
Out: n

In: Hello, I'm reviewing records and need to know if melting point of CC(C)CCn1ccc(-c2ccc(CCCO)cc2)c(C#N)c1=O is below 100 °C. Could you check?
Out: y

In: Lab note: melting point threshold 100 °C. Does this molecule come in strictly under it? COc1ccc(CCc2ccn(CCC(C)C)c(=O)c2C#N)cc1
Out: y

In: Answer whether the molecule CC(C)CCn1ccc(N2CCC(N(C)Cc3ccc(C(F)(F)F)cc3)CC2)c(C#N)c1=O has melting point strictly less than 100 °C
Out: y

In: Is melting point strictly under 100 °C for the entry CC(C)CCn1ccc(OCCN2CCN(c3ccccn3)CC2)c(C#N)c1=O ?
Out: n

In: Given N#Cc1c(N2CCC(c3ccccc3)CC2)ccn(Cc2ccc(OC(F)(F)F)cc2)c1=O , is recorded melting point strictly lower than 100 °C?
Out: n

In: Lab log: compare recorded melting point with 100 °C; is it strictly lower for CC(C)CCn1ccc(N2CCC(Nc3ccccc3)C(C)C2)c(C#N)c1=O (stereo not shown) ?
Out: n

In: hey, is melting point for N#Cc1c(-c2ccc(N3CCOCC3)cc2)ccn(Cc2ccc(OC(F)(F)F)cc2)c1=O lower than 100 °C or not?
Out: n

In: Quick check: melting point of CC(C)CCn1ccc(-c2ccc(OCc3ccc(C(F)(F)F)nc3)cc2)c(C#N)c1=O under 100 °C?
Out: n

In: Strictly below 100 °C in melting point? COC(=O)CCc1ccc(-c2ccn(CCC(C)C)c(=O)c2C#N)cc1
Out: n

In: Check if melting point falls below 100 °C for CC(C)CCn1ccc(-c2ccc(NCCC3(C)OCCO3)cc2)c(C#N)c1=O .
Out: n

In: Record CC(C)CCn1ccc(-c2ccc(OCC(F)(F)F)c(Cl)c2)c(C#N)c1=O : is its melting point strictly below 100 °C?
Out: n

---

biological target: human mGluR2 receptor (Homo sapiens, UniProt Q14416); construct: expressed in transfected cells; host or cells: CHO cells (membrane preparation); assay: [35S]GTPγS binding assay (GTPγS-PAM): positive allosteric modulation in presence of glutamate at EC25, membranes from transfected CHO cells; format: biochemical; details: in presence of mGluR2 agonist glutamate at predetermined EC25 concentration, averages of duplicate values of 11-concentration response curves, read-out: GTPgS - hR2 PAM pEC50 (converted)
Measured parameter: EC50
# output: number + unit

Measured EC50 of Cc1ccc(-c2ccn(CCC(C)C)c(=O)c2C#N)cc1 : 0.794 µM

Reported EC50 for N#Cc1c(NC2CCN(Cc3ccc(OC(F)(F)F)c(Cl)c3)CC2)ccn(CC2CC2)c1=O was 1.58 µM

Looking up Cc1cc(OCC2CCN(c3ccn(Cc4ccc(OC(F)(F)F)cc4)c(=O)c3C#N)CC2)ccn1 , I see its EC50 listed as 0.631 µM

// COc1cc(-c2ccn(CCC(C)C)c(=O)c2C#N)ccc1OCCO : EC50 value = 5.01 µM

EC50 reading for N#Cc1c(N2CCN(Cc3ccc(F)cc3)CC2)ccn(Cc2ccc(OC(F)(F)F)cc2)c1=O : 1.58 µM

Just so you know, measured EC50 for COC(=O)CCc1ccc(-c2ccn(CCC(C)C)c(=O)c2C#N)cc1 came out at 0.794 µM

Documented EC50 of CC(C)CCn1ccc(OC2CCN(Cc3cccc(C(F)(F)F)c3)CC2)c(C#N)c1=O : 0.316 µM

Item: N#Cc1c(-c2ccc(CCCO)cc2)ccn(Cc2ccc(OC(F)(F)F)cc2)c1=O | EC50: 0.2 µM

Measured EC50, C[C@@H]1CN(Cc2ccc(-c3ccn(Cc4ccc(OC(F)(F)F)cc4)c(=O)c3C#N)cc2)C[C@H](C)O1 : 0.794 µM

EC50 in this record for CCCCn1ccc(-c2ccc(OC(F)(F)F)cc2)c(C#N)c1=O : 1.26 µM

Lab book: EC50 of CC(C)CCn1ccc(-c2ccc(NCCC3(C)OCCO3)cc2)c(C#N)c1=O noted as 0.501 µM

The compound identified as CC(C)CCn1ccc(N2CCC(c3noc(-c4ccccc4)n3)CC2)c(C#N)c1=O registered its EC50 at 0.126 µM

Briefly, EC50 measured for CC(C)CCn1ccc(-c2ccc(NCc3ccncc3)cc2)c(C#N)c1=O : 1 µM

Note to self: EC50 recorded for CC(C)CCn1ccc(-c2ccc(NCc3cccnc3)cc2)c(C#N)c1=O was 1.26 µM

Quick note, EC50 for CC(C)CCn1ccc(-c2ccc(NCc3ccc(C#N)cc3)cc2)c(C#N)c1=O landed at 0.0501 µM

// CC(C)CCn1ccc(-c2ccc(COCC#N)cc2)c(C#N)c1=O : EC50 value = 2 µM

Per the records, this compound ( N#Cc1c(-c2ccc(Oc3ccnc(N4CCCCC4)c3)cc2)ccn(CC2CC2)c1=O ) has EC50 equal to 0.316 µM

response.value for CC(C)CCn1ccc(-c2cccc(NS(C)(=O)=O)c2)c(C#N)c1=O (field: EC50) = 3.16 µM

The value of EC50 measured for the compound CC(C)CCn1ccc(N2CCc3ccccc3C2)c(C#N)c1=O turned out to be 0.251 µM

Source listed as patent US9266834B2.
